All figures here come from the supplement of paper PMC11061612.

# Tested on: SCC-3 (B-Cell Non-Hodgkin's Lymphoma)
# test.protocol: combination Emax (second highest fraction inhibited in the dose matrix, 72 h); higher = more inhibition; extreme values may be limits of the assay

[
  {
    "compound": "Cc1c2c(nn1C)CSCc1cc(n(C)n1)CSc1cc(c3ccccc3c1)OCCCc1c(C(=O)O)n(C)c3c-2c(Cl)ccc13 [AZD5991] + C1CN(CCC1(C(=O)N[C@@H](CCO)C2=CC=C(C=C2)Cl)N)C3=NC=NC4=C3C=CN4 [Capivasertib] (first compound max 1 µM, 7x7, partner max 3 µM)",
    "combination Emax": 0.487
  },
  {
    "compound": "C[C@@H](c1ccc2nccn2c1)n1nnc2ncc(-c3cnn(C)c3)nc21 [Savolitinib] + CN(CC[C@H](CSC1=CC=CC=C1)NC2=C(C=C(C=C2)S(=O)(=O)NC(=O)C3=CC=C(C=C3)N4CCC(CC4)[C@H](C5=CC=CC=C5C6=CC=C(C=C6)Cl)O)S(=O)(=O)C(F)(F)F)CCO [AZD4320] (first compound max 1 µM, 7x7, partner max 1 µM)",
    "combination Emax": 0.0987
  },
  {
    "compound": "COc1cccc2c1C(=O)c1c(O)c3c(c(O)c1C2=O)C[C@@](O)(C(=O)CO)C[C@@H]3O[C@H]1C[C@H](N)[C@H](O)[C@H](C)O1 [Doxorubicin] + Cc1cc2ncnn2cc1Nc1ncc2c(n1)n(C1CCOCC1)c(=O)n2C [AZD7648] (first compound max 1 µM, 7x7, partner max 10 µM)",
    "combination Emax": 0.978
  },
  {
    "compound": "CN(C)CCCOc1ccc(-c2ccc3ncc4c(c3c2)n(C2CCOCC2)c(=O)n4C)cn1 [AZD0156] + CCN(CCO)CCCOc1ccc2c(Nc3cc(CC(=O)Nc4cccc(F)c4)[nH]n3)ncnc2c1 [AZD2811] (first compound max 1 µM, 7x7, partner max 1 µM)",
    "combination Emax": 0.445
  },
  {
    "compound": "CC(=O)c1c(C)c2cnc(Nc3ccc(N4CCNCC4)cn3)nc2n(C2CCCC2)c1=O [Palbociclib] + CN(CC[C@H](CSC1=CC=CC=C1)NC2=C(C=C(C=C2)S(=O)(=O)NC(=O)C3=CC=C(C=C3)N4CCC(CC4)[C@H](C5=CC=CC=C5C6=CC=C(C=C6)Cl)O)S(=O)(=O)C(F)(F)F)CCO [AZD4320] (first compound max 10 µM, 7x7, partner max 1 µM)",
    "combination Emax": 0.392
  },
  {
    "compound": "CC1(C)CCC(CN2CCN(c3ccc(C(=O)NS(=O)(=O)c4ccc(NCC5CCOCC5)c([N+](=O)[O-])c4)c(Oc4cnc5[nH]ccc5c4)c3)CC2)=C(c2ccc(Cl)cc2)C1 [Venetoclax] + C1CN(CCC1(C(=O)N[C@@H](CCO)C2=CC=C(C=C2)Cl)N)C3=NC=NC4=C3C=CN4 [Capivasertib] (first compound max 1 µM, 7x7, partner max 3 µM)",
    "combination Emax": 0.131
  }
]

---

# Test system: HuP-T3 (Pancreatic Carcinoma);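 also: after 72 h of two-drug dosing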
# test.protocol: Bliss excess, mean over the matrix (fraction); higher = more synergy

[
  {
    "molecule": "CS(=O)(=O)CCNCc1ccc(-c2ccc3ncnc(Nc4ccc(OCc5cccc(F)c5)c(Cl)c4)c3c2)o1 [Lapatinib] + C[C@@H](Oc1cc(-c2cnn(C3CCNCC3)c2)cnc1N)c1c(Cl)ccc(F)c1Cl [Crizotinib] (first compound max 10 µM, 7x7, partner max 10 µM)",
    "Bliss excess": -0.0563
  },
  {
    "molecule": "CCN(CCO)CCCOc1ccc2c(Nc3cc(CC(=O)Nc4cccc(F)c4)[nH]n3)ncnc2c1 [AZD2811] + O=C(c1cc(Cc2n[nH]c(=O)c3ccccc23)ccc1F)N1CCN(C(=O)C2CC2)CC1 [Olaparib] (first compound max 1 µM, 7x7, partner max 10 µM)",
    "Bliss excess": -0.0195
  },
  {
    "molecule": "NC1(C(=O)N[C@@H](CCO)c2ccc(Cl)cc2)CCN(c2ncnc3[nH]ccc23)CC1 [Capivasertib] + CC(=O)c1c(C)c2cnc(Nc3ccc(N4CCNCC4)cn3)nc2n(C2CCCC2)c1=O [Palbociclib] (first compound max 10 µM, 7x7, partner max 10 µM)",
    "Bliss excess": -0.0457
  },
  {
    "molecule": "COc1cccc(OCCCN)c1-c1cc(Nc2cnc(C#N)cn2)n[nH]1 [Prexasertib] + O=C(c1cc(Cc2n[nH]c(=O)c3ccccc23)ccc1F)N1CCN(C(=O)C2CC2)CC1 [Olaparib] (first compound max 1 µM, 7x7, partner max 10 µM)",
    "Bliss excess": -0.0595
  }
]
